- Assayed Target: T1, HpFurH134Y (Helicobacter pylori, UniProt O25671 1-150, H134Y)
- T1 sequence: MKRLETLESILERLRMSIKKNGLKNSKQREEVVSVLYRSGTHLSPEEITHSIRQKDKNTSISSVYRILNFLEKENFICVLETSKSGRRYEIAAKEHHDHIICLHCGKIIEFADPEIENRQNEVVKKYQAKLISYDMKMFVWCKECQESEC
- Procedure Summary: fluorescence anisotropy
Result Type: Kd (nM)
Please respond with the number in nM and leave the unit unwritten.

stdin: Hello, please tell me recorded Kd for this one: pfr apo-Fur binding site duplex (dsDNA) DNA 1: TTCATTATCATTTATGCTAT DNA 2: ATAGCATAAATGATAATGAA
stdout: 8
